All figures here come from patent US20260242735A1.

# TARGET ENTITY: human CD33 A168S (human, UniProt P20138 18-364)
# Sequence (P20138 18-364 A168S limits assumed): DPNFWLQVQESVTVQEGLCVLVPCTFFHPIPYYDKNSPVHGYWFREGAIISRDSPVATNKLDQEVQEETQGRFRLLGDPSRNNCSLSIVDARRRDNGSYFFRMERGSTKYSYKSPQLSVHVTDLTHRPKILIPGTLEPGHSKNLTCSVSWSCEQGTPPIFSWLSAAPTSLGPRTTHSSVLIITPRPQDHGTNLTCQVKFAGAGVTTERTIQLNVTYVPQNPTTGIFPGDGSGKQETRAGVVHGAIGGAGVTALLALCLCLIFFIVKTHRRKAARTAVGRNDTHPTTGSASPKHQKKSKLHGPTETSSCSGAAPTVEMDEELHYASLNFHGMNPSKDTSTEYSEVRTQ
# PROCEDURE TEXT: alanine scan, flow cytometry, HEK293-T;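 further: antibody binding to each alanine-substituted CD33 mutant expressed transiently in HEK293-T, read as fluorescence minus background, mean of duplicates, relative to wild-type CD33 set as 100%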
READOUT: Mean % WT Binding (%)
Record the value in %, omitting the unit from your answer.

Mean % WT Binding lookup needed for Refmab #3 (antibody, V domains shown, In the alanine scan antibodies were used as IgG or Fab) VH: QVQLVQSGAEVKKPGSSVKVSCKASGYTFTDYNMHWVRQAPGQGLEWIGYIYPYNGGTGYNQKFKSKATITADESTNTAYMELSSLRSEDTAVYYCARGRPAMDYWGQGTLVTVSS VL: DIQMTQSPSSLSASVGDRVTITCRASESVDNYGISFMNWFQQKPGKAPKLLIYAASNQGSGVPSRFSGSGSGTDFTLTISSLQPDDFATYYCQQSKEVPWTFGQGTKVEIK , thanks.
99.2
